system: TSLP production in NHBE cells; experiment: TSLP HTRF assay (TSLP production in poly I:C / IL-4 stimulated NHBE cells); format: cell-based, human; settings: Homo sapiens, NHBE, 24 h, NHBE cells donor #1; poly I:C / IL-4, 24h; geometric mean; read-out: Inhibition of TSLP protein production (IC50, μM) (95% CI)
Assign IC50 to each entry below.
Numbers only here, please. The scale is µM.

Challenge: Return IC50 for the following molecule: Cn1cc(-c2cccc(-c3cnc(N)c(C(=O)NC4C5CC6CC4CC(O)(C6)C5)n3)c2)cn1 (stereo not shown)
Response given: 0.253

Challenge: Determine from records and report IC50 for COc1ccc(N(C)c2nc(NC/C=C(\C)CCC=C(C)C)nc3ccccc23)cc1
Response given: 0.101

Challenge: Return value of IC50 for input Cn1cc(-c2cccc(-c3nc(C(=O)NC4C5CC6CC4CC(O)(C6)C5)c(N)nc3N)c2)cn1 (stereo not shown) , no commentary.
Response given: 0.075

Challenge: Please give the documented IC50 of COc1c(NC(=O)c2ccc(C)c(-c3nnc4c(NCC(C)(C)C)nccn34)c2)cc(C(C)(C)C)cc1NS(C)(=O)=O [compound 7, reference compound]
Response given: 0.738
